biological target: PRMT5 (Homo sapiens); construct: purchased Viva (custom protein); test: PRMT5 biochemical IC50 assay with MTA as cofactor; details: PRMT5, MTA as cofactor; read-out: MTA IC50
Examples of compounds with documented IC50 follow.

[[record]]
compound = "Cc1cc(NC(=O)C(=O)N2C[C@H](C)CC[C@H]2c2cc[nH]n2)cnc1N (single isomer, unassigned)"
recorded_metric = "IC50"
assay_value = "> 500 nM"

[[record]]
compound = "CO[C@@H]1C[C@@H](c2ccc3scnc3c2)N(C(=O)C(=O)Nc2cnc(N)c(C3CC3)c2)C[C@@H]1C (single isomer, unassigned)"
recorded_metric = "IC50"
assay_value = "> 500 nM"

[[record]]
compound = "Cc1cc(NC(=O)C(=O)N2C[C@H](C)[C@H](OC(F)(F)F)C[C@H]2c2ccc(F)cc2)cnc1N (single isomer, unassigned)"
recorded_metric = "IC50"
assay_value = "> 500 nM"

[[record]]
compound = "C[C@@H]1CC[C@@H](c2cccc(C(F)(F)F)c2)N(C(=O)C(=O)Nc2cncc(C(N)=O)c2)C1 (racemic) [Compound 265]"
recorded_metric = "IC50"
assay_value = "< 50 nM"

[[record]]
compound = "Cc1cc(NC(=O)C(=O)N2C[C@H](C)CC[C@H]2C23CC(C(N)=O)(C2)C3)cnc1N (single isomer, unassigned)"
recorded_metric = "IC50"
assay_value = "> 500 nM"


Turning now to a further record.
QUERY: Can you share its IC50? I mean this compound: Cc1cncc(NC(=O)C(=O)N2C[C@@H](C)CC[C@@H]2c2cccc(F)c2)c1 (single isomer, unassigned)
RESULT: > 500 nM

* * *

tested on: HAP1 MTAP-intact cell line; assay: SDMA in-cell western assay, HAP1 MTAP-intact; assay type: cell-based; settings: Homo sapiens, HAP1, read-out: MTAP HAP1 intact IC50
pIC50: −log10 of the molar value.
recorded_metric: pIC50

[[record]]
molecule = "C[C@@H]1CC[C@@H](c2ccc3[nH]ccc3c2)N(C(=O)C(=O)Nc2cncc(C(N)=O)c2)C1 (single isomer, unassigned)"
measured_on = "HAP1 MTAP-intact cell line"
assay_value = "< 6.00"

[[record]]
molecule = "COc1ncc(NC(=O)C(=O)N2C[C@H](C)CC[C@@H]2c2ccccc2)cc1C(N)=O (single isomer, unassigned)"
measured_on = "HAP1 MTAP-intact cell line"
assay_value = "< 6.00"


QUERY: Report pIC50 for Cc1cncc(NC(=O)C(=O)N2CC(C)CCC2c2ccccc2)c1 (stereo not drawn) please.
RESULT: < 6.00

QUERY: What measured pIC50 goes with Cc1cc(NC(=O)C(=O)N2C[C@@H](C)CC[C@@H]2c2ccc3sc(CCN(C)C)nc3c2)cnc1N (single isomer, unassigned) ?
RESULT: > 7.00

QUERY: Using the record for C[C@H]1CC[C@H](c2ccc3[nH]ccc3c2)N(C(=O)C(=O)Nc2cncc(C(N)=O)c2)C1 (single isomer, unassigned) , report its pIC50.
RESULT: 6.00 to 7.00

QUERY: I am curious: what pIC50 value has been reported for Cc1cncc(NC(=O)C(=O)N2[C@@H](c3ccccc3)CC[C@@H](C)[C@H]2C)c1 (single isomer, unassigned) ?
RESULT: < 6.00

* * *

target: PRMT5 (Homo sapiens, UniProt O14744); construct: purchased Viva (custom protein); experiment: PRMT5 biochemical IC50 assay with SAM as cofactor; details: PRMT5, SAM as cofactor; read-out: SAM IC50
Sequence (O14744 whole entry): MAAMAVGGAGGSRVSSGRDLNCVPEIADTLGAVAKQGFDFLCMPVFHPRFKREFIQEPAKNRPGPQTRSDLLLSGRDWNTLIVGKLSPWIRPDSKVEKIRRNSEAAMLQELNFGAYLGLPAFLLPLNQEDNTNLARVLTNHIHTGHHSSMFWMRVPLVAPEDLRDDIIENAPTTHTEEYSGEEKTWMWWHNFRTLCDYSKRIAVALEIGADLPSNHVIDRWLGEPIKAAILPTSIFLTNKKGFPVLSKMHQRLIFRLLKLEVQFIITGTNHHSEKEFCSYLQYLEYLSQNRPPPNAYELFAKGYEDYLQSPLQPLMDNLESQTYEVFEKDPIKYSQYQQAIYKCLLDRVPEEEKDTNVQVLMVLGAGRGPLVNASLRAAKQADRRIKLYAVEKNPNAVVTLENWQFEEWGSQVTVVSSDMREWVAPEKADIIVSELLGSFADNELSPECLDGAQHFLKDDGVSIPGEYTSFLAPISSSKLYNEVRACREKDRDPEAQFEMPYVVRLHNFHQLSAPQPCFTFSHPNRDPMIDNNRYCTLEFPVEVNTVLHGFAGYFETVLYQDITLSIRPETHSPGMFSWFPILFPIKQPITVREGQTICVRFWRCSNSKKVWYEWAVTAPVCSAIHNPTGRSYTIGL
Sequence (Q9BQA1 whole entry partner): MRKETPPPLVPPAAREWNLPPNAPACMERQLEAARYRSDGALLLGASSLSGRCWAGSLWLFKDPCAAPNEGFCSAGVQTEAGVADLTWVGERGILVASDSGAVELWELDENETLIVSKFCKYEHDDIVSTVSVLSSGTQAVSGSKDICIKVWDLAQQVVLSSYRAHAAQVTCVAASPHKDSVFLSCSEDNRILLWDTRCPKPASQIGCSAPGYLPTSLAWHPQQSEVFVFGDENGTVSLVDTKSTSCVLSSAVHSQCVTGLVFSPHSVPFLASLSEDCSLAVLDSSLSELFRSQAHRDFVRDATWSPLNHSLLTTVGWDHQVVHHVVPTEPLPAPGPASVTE
recorded_metric: IC50

[[record]]
compound = "CCc1cc(NC(=O)C(=O)N2C[C@@H](C)CC[C@@H]2c2ccc(-c3cncs3)cc2)cnc1N (single isomer, unassigned)"
measured_on = "PRMT5 (Homo sapiens, UniProt O14744)"
recorded_metric = "IC50"
assay_value = "> 500 nM"

[[record]]
compound = "CNc1nc2cc([C@H]3CC[C@H](C)CN3C(=O)C(=O)Nc3cnc(OC)c(C(N)=O)c3)ccc2s1 (single isomer, unassigned)"
measured_on = "PRMT5 (Homo sapiens, UniProt O14744)"
recorded_metric = "IC50"
assay_value = "50 to 500 nM"

[[record]]
compound = "Cc1cc(NC(=O)C(=O)N2C[C@H](C)CC[C@H]2c2cccs2)cnc1N (single isomer, unassigned)"
measured_on = "PRMT5 (Homo sapiens, UniProt O14744)"
recorded_metric = "IC50"
assay_value = "50 to 500 nM"

[[record]]
compound = "C[C@@H]1CC[C@@H](c2ccc(F)cc2)N(C(=O)C(=O)Nc2cncc(C(N)=O)c2)C1"
measured_on = "PRMT5 (Homo sapiens, UniProt O14744)"
recorded_metric = "IC50"
assay_value = "> 500 nM"

[[record]]
compound = "C[C@@H]1CC[C@@H](c2cccc(OC(F)(F)F)c2)N(C(=O)C(=O)Nc2cncc(C(N)=O)c2)C1 (racemic)"
measured_on = "PRMT5 (Homo sapiens, UniProt O14744)"
recorded_metric = "IC50"
assay_value = "50 to 500 nM"


Switching to the query record.
QUERY: Using the record for CC(=O)Nc1ccc([C@H]2CC[C@H](C)CN2C(=O)C(=O)Nc2cncc(C(N)=O)c2)s1 (single isomer, unassigned) , report its IC50.
RESULT: > 500 nM

* * *

IC50 values for the compounds below.
system: HAP1 MTAP-deleted cell line; test: SDMA in-cell western assay, HAP1 MTAP-deleted; assay type: cell-based; conditions: Homo sapiens, HAP1, SDMA in-cell western, HAP1 MTAP-deleted; read-out: HAP 1 MTAP deleted IC50

QUERY: Sample CCc1cc(NC(=O)C(=O)N2C[C@@H](C)CC[C@@H]2c2ccn3cc(C4CCN(C)CC4)nc3c2)cnc1N — what was its IC50?
RESULT: < 100 nM

* * *

molecular target: PRMT5 (Homo sapiens, UniProt O14744); construct: purchased Viva (custom protein); test: PRMT5 biochemical IC50 assay with MTA as cofactor; conditions: PRMT5, MTA as cofactor; read-out: MTA IC50
pIC50: −log10 of the molar value.
recorded_metric: pIC50

Record excerpt, results attached:
[[record]]
molecule = "C[C@H]1CC[C@H](c2ccc3c(c2)OCCN3)N(C(=O)C(=O)Nc2cncc(C(N)=O)c2)C1 (single isomer, unassigned) [Compound 598]"
recorded_metric = "pIC50"
assay_value = "> 7.30"

[[record]]
molecule = "COc1ncc(NC(=O)C(=O)N2C[C@@H](C)CC[C@@H]2C2CCCCC2)cc1C(N)=O (single isomer, unassigned) [Compound 369]"
recorded_metric = "pIC50"
assay_value = "> 7.30"

[[record]]
molecule = "CNC(=O)c1ccc([C@@H]2CC[C@@H](C)CN2C(=O)C(=O)Nc2cnc(N)c(C)c2)s1 (single isomer, unassigned) [Compound 849]"
recorded_metric = "pIC50"
assay_value = "< 6.30"

[[record]]
molecule = "Cc1cc([C@H]2CC[C@H](C)CN2C(=O)C(=O)Nc2cnc(N)c(C)c2)ccc1O (single isomer, unassigned) [Compound 551]"
recorded_metric = "pIC50"
assay_value = "< 6.30"

[[record]]
molecule = "Cc1cc(NC(=O)C(=O)N2C[C@@H](C)CC[C@@H]2c2ccc3[nH]nc(N)c3c2)cnc1C (single isomer, unassigned) [Compound 958]"
recorded_metric = "pIC50"
assay_value = "< 6.30"

[[record]]
molecule = "CCc1cc(NC(=O)C(=O)N2C[C@@H](C)CC[C@@H]2c2cccc([C@@H]3CCCN(C)C3)c2)cnc1N [Compound 1090]"
recorded_metric = "pIC50"
assay_value = "> 7.30"

[[record]]
molecule = "Cc1cc(NC(=O)C(=O)N2CC(C)(C)CCC2c2ccccc2)cnc1N (racemic) [Compound 56]"
recorded_metric = "pIC50"
assay_value = "6.30 to 7.30"

[[record]]
molecule = "C[C@H]1CC[C@H](c2ccccn2)N(C(=O)C(=O)Nc2cncc(C(N)=O)c2)C1 (single isomer, unassigned) [Compound 590]"
recorded_metric = "pIC50"
assay_value = "> 7.30"


QUERY: I have this molecule here, Cc1cc(NC(=O)C(=O)N2CC(C)(C)CCC2c2ccccc2)cnc1N (single isomer, unassigned) [Compound 58] , and I need its recorded pIC50.
RESULT: < 6.30

* * *

system: HAP1 MTAP-intact cell line; assay: SDMA in-cell western assay, HAP1 MTAP-intact; type: cell-based; conditions: Homo sapiens, HAP1, SDMA in-cell western, HAP1 MTAP-intact; read-out: MTAP HAP1 intact IC50
recorded_metric: IC50

[[record]]
compound = "CCOc1ncc(NC(=O)C(=O)N2C[C@@H](C)CC[C@@H]2c2ccccc2)cc1C(N)=O (single isomer, unassigned)"
measured_on = "HAP1 MTAP-intact cell line"
assay_value = "> 1000 nM"


QUERY: Can you look up IC50 on HAP1 MTAP-intact cell line for C[C@H]1CC[C@H](c2cc[nH]n2)N(C(=O)C(=O)Nc2cncc(C(N)=O)c2)C1 (single isomer, unassigned) ?
RESULT: > 1000 nM

QUERY: Requested read-out IC50, target or system HAP1 MTAP-intact cell line, entry Cc1cc(NC(=O)C(=O)N2CCCC[C@@H]2c2ccc3[nH]ncc3c2)cnc1N (single isomer, unassigned)
RESULT: > 1000 nM

QUERY: Param readout = IC50; param system = HAP1 MTAP-intact cell line; param query = Cc1cncc(NC(=O)C(=O)N2CCCCC2c2cccc(N(C)C)c2)c1 (stereo not shown) ; response: value
RESULT: > 1000 nM
